- System: Nuclear hormone receptor DAF-12 (Heterodera glycines), GAL4 fusion
- ASSAY EXPLANATION: H. glycines DAF-12 receptor agonists, primary screen, cell-based, luminescence, HEK293, GAL4 fusion, UAS-luciferase (AID 687014);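 further: 0% = DMSO wells and 100% = sodium butyrate wells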
- RUN CONDITIONS: HEK293 GAL4-hgDAF12 UAS-luciferase reporter, agonist luminescence; at 6.8 µM; active compounds read high; normalized to butyrate control
The whole screen tested about 370,000 compounds, of which about 6,800 (1.8%) were called active. Shown is part of a subset that was picked to be rich in actives.
Overview of recorded activation for various compounds
Your answer is read as %, so omit the unit and give the number.

Please review the following examples before continuing.
>>> result_value("Oc1cccc2cc(-c3ccncc3)cnc12")
15.1
>>> result_value("Cn1c(SCC(=O)c2cccs2)nnc1-c1ccco1")
1.52
>>> result_value("COc1ccc(-c2csc(Nc3ccccn3)n2)cc1")
16.9
>>> result_value("O=C(COC(=O)c1cccc(Cl)c1)NC(=O)NCc1ccccc1")
0.55
>>> result_value("CCNC(=O)C1(C)CCN(C(=O)c2ccccc2)C1 (stereo not drawn)")
2.75

Which measured activation value corresponds to O=C(NC(=S)Nc1ccccc1C(=O)O)c1ccc(-c2ccc(Br)cc2)o1 ?
-2.39

Query: activation; subject: COC(=O)c1ccc(CN2C(=O)[C@]3(OCCC=C[C@H]3C)c3c(Br)cccc32)cc1
4.21

Consider the compound shown here: c1ccc(Nc2nc(-c3ccncc3)cs2)nc1 What is its recorded activation?
14.5

Bench note: what activation did COC(=O)[C@]1(C#N)CC(=O)N(CC2CCCCC2)[C@@H]1c1ccccc1 show?
1.35

# activation lookup, item CCOC(=O)c1sc(/N=C/Nc2nc(C)c(C(=O)OCC)s2)nc1C
0.82

Origin of values: PubChem BioAssay AID687014
